Consider the cut-off 200 °C. If the recorded melting point is strictly smaller, the label is fulfilled; if not, the label is not fulfilled.

Worked examples, 5 molecules total:
Cc1cc(-c2sc(N3CCOC(C)C3)nc2CNC(=O)CC2CC2)cc(C)n1 (single isomer, unassigned) [Compound 75] :: fulfilled
COc1cc(-c2sc(N3C[C@@H](C)O[C@@H](C)C3)nc2CNC(=O)c2cccc(F)c2)cc(C)n1 :: fulfilled
Cc1cc(-c2sc(N3C[C@@H](C)O[C@@H](C)C3)nc2CNC(=O)CC2CC2)c(C)cn1 :: fulfilled
Cc1cc(-c2sc(N3C[C@@H](C)O[C@@H](C)C3)nc2CNC(=O)c2ccc(F)cc2)ccn1 :: not fulfilled
C[C@@H]1CN(c2nc(CNC(=O)CC3CC3)c(-c3ccncc3)s2)C[C@H](C)O1 :: fulfilled

Alright, here's another molecule for you.
## Task Lab log: compare recorded melting point with 200 °C; is it strictly lower for Cc1cc(-c2sc(N3C[C@@H](C)O[C@@H](C)C3)nc2CNC(=O)c2occc2C)cc(C)n1 ?
## Result fulfilled
